Data origin, for the record: ChEMBL document CHEMBL1201862

Molecular target: Glucose-6-phosphate 1-dehydrogenase (Homo sapiens, UniProt P11413)
Sequence (P11413 whole entry): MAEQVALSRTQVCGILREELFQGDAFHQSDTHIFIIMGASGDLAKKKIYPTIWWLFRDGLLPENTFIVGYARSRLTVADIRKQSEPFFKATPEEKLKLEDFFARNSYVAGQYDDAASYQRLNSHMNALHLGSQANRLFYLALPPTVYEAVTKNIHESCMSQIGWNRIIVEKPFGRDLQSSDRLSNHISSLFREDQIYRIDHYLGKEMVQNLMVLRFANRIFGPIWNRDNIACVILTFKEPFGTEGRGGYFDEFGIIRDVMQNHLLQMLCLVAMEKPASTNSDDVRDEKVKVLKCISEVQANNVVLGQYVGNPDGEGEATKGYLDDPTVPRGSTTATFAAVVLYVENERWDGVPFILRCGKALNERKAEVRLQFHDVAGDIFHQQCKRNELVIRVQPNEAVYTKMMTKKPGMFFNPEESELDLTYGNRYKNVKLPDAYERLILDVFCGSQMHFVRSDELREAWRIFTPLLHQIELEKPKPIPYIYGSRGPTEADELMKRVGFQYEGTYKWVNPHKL
Test: inhibition of Homo sapiens G6PD, dose series – biochemical, fluorescence, selectivity assay for P. falciparum G6PD inhibitor project, dose response (AID 504792)
Format: functional
Active and inactive are the calls of the source.
observable: IC50

These recorded examples may help you get a feel for the data.
{"molecule": "O=C(Nc1nnc(S(=O)(=O)N2CCCCC2)s1)c1cccc(Br)c1", "system.tested": "Glucose-6-phosphate 1-dehydrogenase (Homo sapiens, UniProt P11413)", "IC50": "> 80 µM (inactive)"}
{"molecule": "Cc1cc(C)c2c(=O)n(CC(=O)Nc3cccc(F)c3)sc2n1", "system.tested": "Glucose-6-phosphate 1-dehydrogenase (Homo sapiens, UniProt P11413)", "IC50": "22.1 µM (inactive)"}
{"molecule": "[O-]/[N+](=C\\c1ccncc1)c1ccccc1", "system.tested": "Glucose-6-phosphate 1-dehydrogenase (Homo sapiens, UniProt P11413)", "IC50": "> 80 µM (inactive)"}
{"molecule": "COCCn1nnnc1C(c1cc2cc(OC)c(OC)cc2[nH]c1=O)N1CCN(c2ccc(O)cc2)CC1 (stereo not given)", "system.tested": "Glucose-6-phosphate 1-dehydrogenase (Homo sapiens, UniProt P11413)", "IC50": "> 80 µM (inactive)"}

Recall and state the measured IC50 for Cc1c(Cl)c([N+](=O)[O-])nn1Cc1ccc(C(=O)N/N=C\c2cccc(Br)c2)o1 .
> 80 µM (inactive)

----------
Biological target: Replicative DNA helicase DnaB (Mycobacterium tuberculosis, UniProt P9WMR3)
Sequence (P9WMR3 1-399, added parts left off): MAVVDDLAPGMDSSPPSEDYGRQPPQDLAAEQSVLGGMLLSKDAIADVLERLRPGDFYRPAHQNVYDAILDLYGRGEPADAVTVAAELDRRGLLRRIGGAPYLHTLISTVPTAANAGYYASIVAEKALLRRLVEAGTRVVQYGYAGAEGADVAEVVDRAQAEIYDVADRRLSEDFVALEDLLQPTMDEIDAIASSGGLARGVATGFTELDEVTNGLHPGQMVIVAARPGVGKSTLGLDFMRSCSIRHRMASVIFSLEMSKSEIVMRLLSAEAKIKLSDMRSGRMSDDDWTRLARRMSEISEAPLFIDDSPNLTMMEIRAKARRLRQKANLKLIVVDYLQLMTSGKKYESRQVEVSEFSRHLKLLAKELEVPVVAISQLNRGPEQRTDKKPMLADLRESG
Experiment: DnaB intein splicing inhibitors, dose response, biochemical, cell-free fluorescence (AID 449749)
Assay type: functional
Active and inactive are the calls of the source.
Valid outcomes are listed here; reply with one: TRUE for active, FALSE for inactive

Some entries whose results are on file:
{"compound": "Cc1ccc(CNC(=O)CCN2C(=O)[C@@H]3Cc4ccccc4CN3C2=O)cc1", "label.value": "TRUE"}
{"compound": "CCCCC(=O)NC(c1cccc([N+](=O)[O-])c1)c1c(OC(C)=O)ccc2ccccc12 (stereo unspecified)", "label.value": "TRUE"}
{"compound": "CC1(S(=O)(=O)O)CC(=O)c2ccccc2C1=O (stereo unspecified)", "label.value": "TRUE"}
{"compound": "CC1CC(C)CN(C(=O)c2ccc3c(c2)N(Cc2ccccc2)CCS3)C1 (stereo unspecified)", "label.value": "TRUE"}
{"compound": "O=C(CCl)NCc1c(Cl)cccc1-n1cccc1", "label.value": "FALSE"}

// return assay outcome for Cc1ccc(-n2nc(C)c(NC(=O)CCl)c2C)cc1C
FALSE

----------
Reported EC50 is given for each of the following compounds.
Target: Streptokinase A (Streptococcus pyogenes serotype M1, UniProt P10520)
Sequence (P10520 whole entry): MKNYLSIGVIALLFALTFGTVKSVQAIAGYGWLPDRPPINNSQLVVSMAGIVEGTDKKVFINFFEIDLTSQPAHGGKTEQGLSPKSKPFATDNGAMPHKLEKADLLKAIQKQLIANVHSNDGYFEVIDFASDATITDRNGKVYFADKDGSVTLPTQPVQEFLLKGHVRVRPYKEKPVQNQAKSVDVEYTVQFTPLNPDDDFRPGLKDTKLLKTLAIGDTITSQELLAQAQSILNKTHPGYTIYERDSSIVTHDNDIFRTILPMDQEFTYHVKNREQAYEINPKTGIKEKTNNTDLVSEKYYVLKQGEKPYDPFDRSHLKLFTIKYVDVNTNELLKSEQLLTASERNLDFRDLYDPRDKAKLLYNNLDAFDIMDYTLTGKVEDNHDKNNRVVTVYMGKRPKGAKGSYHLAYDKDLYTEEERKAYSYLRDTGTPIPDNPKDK
Test: viability-normalized secreted streptokinase activity reduction – plasminogen activation absorbance, OD405, dose response (AID 1914);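 also: secreted streptokinase activity via plasminogen activation per viability signal from cell pellet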
Assay type: functional, Streptococcus pyogenes M1 GAS
Active and inactive are the calls of the source.

These recorded examples may help you get a feel for the data.
{"compound": "COc1ccccc1-c1cc(-c2ccccc2)nc(SCC(=O)O)c1C#N", "EC50": "1.72 µM (active)"}
{"compound": "CC(C)(C)c1ccc(O)c(/N=C/c2c(O)ccc3ccccc23)c1", "EC50": "> 150 µM (not active)"}
{"compound": "Cc1ccc(C)c(/C=N/NC(=S)NCCc2ccccc2)c1", "EC50": "> 150 µM (not active)"}

Next compound, EC50 to be filled in.
Recall and state the measured EC50 for O=c1cc2oc3cc(O)c(O)cc3c(-c3ccccc3[N+](=O)[O-])c-2cc1O .
11.2 µM (active)
